B1: KLHDC10 (parent)
chain: PSLLELAWEKLLAAFPNLANLSRT

variants of: B1; experiment: protein stability index of a GFP-peptide fusion (GPS, HEK-293T) (PSI 1-6); higher = more stable; details: c terminus: a fixed tail appended;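 also: lentivirally expressed fusions sorted by FACS into six bins by GFP to DsRed ratio, PSI derived from sequencing read proportions per bin multiplied by bin number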
I'd be grateful if you could share measured protein stability index for these entries.
One number for each entry.

{"columns": ["mutation_name", "readout_kind", "endpoint_value"],
 "data": [
  ["A19C", "protein stability index", 2.04]
]}

Hi! Can you tell me protein stability index for each of these variants?
1. A13P
2. F15Q
3. L4T
4. A19Y
5. T24D
6. E5Q

**Result**
1: 1.86; 2: 2.52; 3: 3.05; 4: 2.02; 5: 2.79; 6: 2.49
